Test system: A498 renal
Experiment: NCI tumour cell line growth inhibition, 48 h
MEASUREMENT_KIND: GI50

Below, 2 compounds whose answers are already recorded.
Cn1c([N+](=O)[O-])cnc1/C=C1\Oc2cc(Cl)ccc2C1=O ... 1.95 µM
CC(=O)[O-].CC(=O)[O-].CC(=O)[O-].CC(=O)[O-].[Mo+2].[Mo+2] ... > 100 µM

(Q) State measured GI50 of the compound Cc1cc(Nc2nc(SCc3ccc(C(=O)Nc4ccc(F)cc4N)cc3)nn3cccc23)n[nH]1 with A498 renal.
(A) 0.623 µM

(Q) For A498 renal, give GI50 of the listed compound: COc1ccc2cc(-c3ccc(-c4ccc(C(=N)N)s4)s3)ccc2c1
(A) 14.3 µM

(Q) Please tell me the measured GI50 for CCSc1nc(N)c2cn[nH]c2n1 ; system: A498 renal.
(A) 20.7 µM

(Q) Provide measured GI50 on A498 renal for CCN(CC)CCNC(=O)c1cn2ncnc(Oc3ccc(NC(=O)Nc4ccc(Cl)c(C(F)(F)F)c4)c(F)c3)c2c1C please.
(A) 1.84 µM

(Q) Give A498 renal GI50 for the following compound: O=S(=O)(CCOCc1ccc(-c2ccc3ncnc(Nc4ccc(OCc5cccc(F)c5)c(Cl)c4)c3c2)o1)c1ccccc1
(A) > 7 µM

(Q) Specify the recorded GI50 for CCCCCCCCCCN=C(c1ccc(N(C)C)cc1)c1ccc(N(C)C)cc1 , system: A498 renal.
(A) 0.457 µM

====

Recorded TGI by entry
System: XF 498 CNS
Experiment: NCI tumour cell line growth inhibition, 48 h

Before answering, review these 2 worked examples.
COc1cccc(/C=C2\CCC(C)(CN(C)C)C2=O)c1 (stereo not given) ... > 100 µM
CNC(SC)=C1C(=O)OC(C)(C)OC1=O ... > 100 µM

(Q) State TGI (XF 498 CNS) of CCCCCCCCCCCCCC(=O)OCC1OC(=O)CC1O (stereo not given) .
(A) > 100 µM

(Q) Give measured TGI for Cl[Si]1(Cl)Oc2ccccc2O[Si](Cl)(Cl)Oc2ccccc2O1 (XF 498 CNS).
(A) 30.3 µM

(Q) Retrieve TGI on XF 498 CNS; query BrC/C=C/C[P+](c1ccccc1)(c1ccccc1)c1ccccc1
(A) 43.6 µM

(Q) Write down measured TGI (XF 498 CNS) for this compound. CC(=O)OCC1OC(n2cc([N+](=O)[O-])c(=O)[nH]c2=O)C(OC(C)=O)C(OC(C)=O)C1OC(C)=O (stereo not given)
(A) > 100 µM

(Q) Provide the reported TGI (system: XF 498 CNS) for O=C/C(=C(/Cl)c1ccc(O)cc1)c1ccccc1
(A) > 45.4 µM

(Q) Report value only: TGI, XF 498 CNS, O=C(NC12CC3CC(CC(C3)C1)C2)C(=O)c1c[nH]c2ccc(Cl)cc12
(A) 43 µM

(Q) Name the value of TGI reported for CC(=O)O[C@]12CCCCCC1C1(O)C(O)CCC[C@H]12 (stereo not given in full) when tested on XF 498 CNS.
(A) > 100 µM

(Q) For XF 498 CNS, give TGI of the listed compound: O=c1c(Cl)c(Cl)cnn1CCc1ccncc1
(A) 29.6 µM

(Q) State recorded TGI with XF 498 CNS, entry CSc1c(C)c(C)nn1-c1ccccc1 , no comment.
(A) > 100 µM

(Q) Give TGI; test system XF 498 CNS; compound CC(=O)[CH-]C(C)=O.[CH2-]C.[CH2-]C.[Tl+3]
(A) > 100 µM

(Q) Give TGI; test system XF 498 CNS; compound CCN(CC)CC(=O)N1CCc2c([nH]c3ccccc23)C1c1cccnc1 (stereo not given)
(A) > 100 µM

(Q) Under XF 498 CNS: report TGI of CC(=O)NNc1nc(C)c(C(=O)NNC(=O)C(=O)Nc2nc3ccc([N+](=O)[O-])cc3s2)s1 .
(A) 75.9 µM

(Q) Give reported TGI for O=C1C=C(O)c2[nH]c(=O)ccc2C1=O (XF 498 CNS)
(A) > 100 µM

====

Tested on: HT29 colon
Assay: NCI tumour cell line growth inhibition, 48 h
Consider the following compounds and their measured TGI readings.

Reference set, count: 2
C(=N\NC1=NCCCN1)/c1ccc2ccccc2c1 ... 23 µM
CCCNC(=O)CCC(C)[C@H]1CCC2C3C(C[C@H](OC(C)=O)[C@@]21C)[C@@]1(C)CCC2(C[C@H]1C[C@H]3OC(C)=O)OOC1(CCC(C)CC1)OO2 (stereo partly drawn) ... > 100 µM

Kindly review the next compound as well.
(Q) Fill in reported TGI for this entry: CNC(SC)=C1C(=O)OC(C)(C)OC1=O
(A) > 100 µM

====

Tested on: UACC-62 melanoma
Test: NCI tumour cell line growth inhibition, 48 h
MEASUREMENT_KIND: TGI

Use the examples below as a reference point.
CN(C)C(=S)S ... > 100 µM
Cc1ccccc1C(O)(c1nccn1C)c1nccn1C ... > 100 µM
CN(C)c1nc(=NCc2ccccc2)ss1 ... > 10 µM

(Q) # return recorded TGI for entry NNC(=O)c1ccc[n+](CCc2ccccc2)c1
(A) > 100 µM

(Q) Tell me measured TGI for Cc1ncc(C(=O)Nc2ccc(CN3CCN(C)CC3)c(C(F)(F)F)c2)cc1C#Cc1cnc(NC2CC2)c2ncccc12 please.
(A) 2.38 µM

(Q) Determine its reported TGI: O=[N+]([O-])/C(C(Cl)=C(Cl)Cl)=C(\Nc1cccc2cccnc12)SCc1ccccc1
(A) 63.7 µM

(Q) Using known records, supply TGI for C=CCOC(=O)CC[N+]1=CCC(c2ccccc2)(c2ccccc2)O1
(A) > 100 µM

====

Tested on: TK-10 renal
Assay: NCI tumour cell line growth inhibition, 48 h
MEASUREMENT_KIND: TGI

C#CCC(N)(CO)C(=O)O (stereo unspecified) ... > 100 µM
COCOc1ccc(Cn2c(=O)n(C)c(=O)c3c2ncn3C)cc1[N+](=O)[O-] ... > 100 µM

(Q) Return reported TGI. Input compound: C=C[C@@H]1C(CO)=CCC2[C@H]1CCC1C(C)(C)C(=O)CC[C@]21C (stereo partly specified)
(A) > 100 µM

(Q) Let me know recorded TGI for COCCOCCOCc1n(Cc2ccc3ccccc3n2)c2ccccc2[n+]1Cc1ccc2ccccc2c1 , thanks.
(A) 2.42 µM

====

System: HOP-62 NSCLC
Assay: NCI tumour cell line growth inhibition, 48 h
MEASUREMENT_KIND: GI50

O=C1C(Cl)=C(Nc2ccccc2)C(=O)c2ccccc21 ... 12.8 µM
Cn1cc(-c2csc(-c3cn(C)c4ccccc34)n2)c2cnccc21 ... 1.67 µM
CCSc1nc(N)c2cn[nH]c2n1 ... 49 µM
Cn1c2ccccc2c2c(=O)c3ccccc3[nH]c21 ... 38.9 µM
CCCCCCCCCCCC[n+]1ccccc1 (tested in a mixture with another compound) ... 1.15 µM
O=C1c2cccnc2-c2nc(-c3ccncc3)cc3c2c1nc1ccccc13 ... 14.3 µM
C=C1CC2(OC1=O)C(=O)N(CCCN1C(=O)C3(CC(=C)C(=O)O3)c3ccccc31)c1ccccc12 (stereo not given) ... 7.34 µM
CCC1=C[C@@H]2CN(C1)Cc1c([nH]c3ccccc13)[C@@](C(=O)OC)(c1cc3c(cc1OC)N(C)[C@H]1[C@@](O)(C(=O)OC)[C@H](OC(C)=O)[C@]4(CC)[C@@H]5C[C@@H]5CN5CC[C@]31[C@@H]54)C2 ... < 0.005 µM

(Q) # assay system HOP-62 NSCLC: give GI50 of O=C(c1ccc2ccccc2c1)c1c(C(F)(F)F)n([O-])c2ccc(Cl)cc2[n+]1=O
(A) 1.86 µM

(Q) State the measured GI50 (HOP-62 NSCLC) of COc1ccc(CC(C)C(C)Cc2ccc(OC)c(OC)c2)cc1OC (stereo not given)
(A) 750 µM

(Q) Write down the reported GI50 (system: HOP-62 NSCLC) of CC1CCCc2c1nn(C(=O)/C=C(\N)c1ccccc1)c2N (stereo not given)
(A) 8.49 µM

(Q) Give the observed GI50 of C=C(CN1CCc2ccccc2C1)c1ccc(C(=O)Nc2ccccc2N)cc1 for HOP-62 NSCLC.
(A) 1 µM

(Q) Give GI50; test system HOP-62 NSCLC; compound COc1ccc(-c2nnc(N3CCN(C(=O)CN4CCN(c5ccc(OC)cc5)CC4)CC3)nc2-c2ccc(OC)cc2)cc1
(A) 16.5 µM

(Q) Fill in GI50 for COCCOCCOCc1n(Cc2ccc3ccccc3n2)c2ccccc2[n+]1Cc1ccc2ccccc2c1 tested with HOP-62 NSCLC.
(A) 0.468 µM

(Q) Give HOP-62 NSCLC GI50 for the following compound: CC(=O)[CH-]C(C)=O.[CH2-]C.[CH2-]C.[Tl+3]
(A) > 100 µM
